Hello, the source for this data is patent US20260174875A1, in case you need it.

target: human GIP receptor (hGIPR) (Homo sapiens); construct: expressed in transfected cells; experiment: GIP receptor assay, method A (CRE-luciferase reporter, BHK cells); assay type: cell-based; details: method A, absence of HSA; read-out: hGIPR Potency, no HSA, EC50
Sequence (P48546 22-466): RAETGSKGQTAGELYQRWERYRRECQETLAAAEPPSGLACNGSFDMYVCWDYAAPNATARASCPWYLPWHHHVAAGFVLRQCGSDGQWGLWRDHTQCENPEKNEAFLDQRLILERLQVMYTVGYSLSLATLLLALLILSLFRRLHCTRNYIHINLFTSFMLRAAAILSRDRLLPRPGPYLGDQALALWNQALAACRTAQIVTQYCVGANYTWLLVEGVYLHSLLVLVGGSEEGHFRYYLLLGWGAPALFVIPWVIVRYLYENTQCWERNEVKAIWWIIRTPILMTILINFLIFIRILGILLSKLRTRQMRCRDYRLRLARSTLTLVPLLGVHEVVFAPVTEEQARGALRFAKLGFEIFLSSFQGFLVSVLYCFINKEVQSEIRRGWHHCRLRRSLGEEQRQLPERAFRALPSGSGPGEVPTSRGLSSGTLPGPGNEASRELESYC
Numbered stars: 1 amine (or outer) side, 2 acyl side, 3 side chain; on linkers, the order of the positions; unused ones are H or OH. Square brackets hold non-standard residues; d marks the D form. Side chains are listed from the residue outwards. * marks the point of attachment. C18 diacid = O=C(O)CCCCCCCCCCCCCCCCC(=O)*; C16 diacid = O=C(O)CCCCCCCCCCCCCCC(=O)*; γGlu = O=C(O)[C@H](CCC(=O)[*:2])N[*:1]; AEEA = NCCOCCOCC(=O)O; Aib = CC(C)(N)C(=O)O
Entries whose EC50 is below 3 pM take criterion met; entries at or above 3 pM take criterion not met.

Some solved entries appear below for comparison.
- Substance: "Y[Aib]EGTFTSDYSILLEEQAAREFIEWLLAGGPSSGAGQAPGQAPLASHLSTAQTQRLSAELHK([AEEA-AEEA-γGlu-C18 diacid])LATLPRTETGSGSP-NH2 [compound 58]"
  Group: "criterion met"
- Substance: "Y[Aib]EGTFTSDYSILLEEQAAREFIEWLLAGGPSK([AEEA-AEEA-γGlu-C18 diacid])GGGGEGGGEGEASHLSTAQTQRLSAELHELATLPRTETGSGSP-NH2 [Compound 40]"
  Group: "criterion met"
- Substance: "Y[Aib]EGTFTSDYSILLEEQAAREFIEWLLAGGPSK([AEEA-AEEA-γGlu-C16 diacid])GEASELSTAALGRLSAELHRLATLPRTETGSGSP-NH2 [Compound 18]"
  Group: "criterion not met"

Determine if H[Aib]HGTFTSDYSILLEEQAAREFIEWLLAGGPSSGALAQTLAQTLASHLSTAQTQRLSAELHK([AEEA-AEEA-γGlu-C18 diacid])LATLPRTETGSGSP-NH2 [Compound 51] shows EC50 strictly lower than 3 pM. criterion not met

Does this substance meet the criterion EC50 < 3 pM? H[Aib]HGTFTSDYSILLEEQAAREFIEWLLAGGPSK([AEEA-AEEA-γGlu-C18 diacid])GAPPPSGGGASELSTAALGRLSAELHRLATLPRTETGSGSP-NH2 [Compound 86] criterion not met
